system: HOP-62 NSCLC; assay: NCI tumour cell line growth inhibition, 48 h
VALUE TYPE: TGI

Endpoint output: TGI of Cc1ccc(S(=O)(=O)NC(=O)NC(CCC(N)=O)C(=O)O)cc1 (centres undefined) . Value?
> 100 µM

Same read-out for "CCc1nn2ncccc2c1-c1ccnc(NC2CC2)n1" ?
> 25 µM

Same read-out for "CCC(=O)Nc1ccc(NCC(=O)Nc2ccc(OC)cc2)cc1" ?
11.6 µM

Same read-out for "O/N=C\C(=Nc1ccc(Cc2ccc(N=C(/C=N\O)NO)cc2)cc1)NO" ?
> 100 µM

Same read-out for "Cc1nc(Nc2ccc(Cl)c(Cl)c2)sc1C(=O)/C=C/c1ccc2c(c1)OCO2" ?
36.5 µM

Same read-out for "CCCCCCCCCCOC(=O)c1cc[n+](C)cc1" ?
30.6 µM

Same read-out for "Nc1nc2c(ccc3ccccc32)s1" ?
> 100 µM

Same read-out for COc1cccc(NC(=O)c2sc3nc4c(cc3c2N)C(O)CCC4)c1 (centres undefined) ?
64.6 µM

Same read-out for COc1cc(S(=O)(=O)Nc2ccc(-c3csc(N4C(=O)C(Cl)C4c4cccs4)n3)cc2)ccc1Cl (centres undefined) ?
> 100 µM

Same read-out for CC(C)=C1CCC(CN2CCOCC2)C1=O (centres undefined) ?
> 93.5 µM

Same read-out for CC(=O)NC1(C)C(C)C2CC1C(C)C2(C)C (centres undefined) ?
> 100 µM

Same read-out for "COc1ccc2c(c1)[n+](=O)c(C(=O)CC(=O)C(=O)Nc1cccc(C)c1C)c(C)n2[O-]" ?
> 100 µM

Same read-out for "CC[n+]1c(/C=C/c2ccc(N(CCCl)CCCl)cc2)ccc2cc(I)ccc21" ?
3.55 µM

Same read-out for "COCOc1cc(OC)ccc1C/C(=N/O)C(=O)OC" ?
> 100 µM

Same read-out for "Cc1cc(NS(=O)(=O)c2ccc(Nc3c4ccccc4nc4c(C(=O)NCCO)cccc34)cc2)no1" ?
> 100 µM

Same read-out for "O=C(O)c1ccc(Nc2nc3nn(Cc4ccccc4)cc3c(=O)s2)cc1" ?
> 100 µM

Same read-out for "COc1cc(-c2cc3ncccc3c3[nH]c(=O)c4cccnc4c23)cc(OC)c1OC" ?
> 100 µM

Same read-out for CC[C@@H](O)C[C@H]1CCC[C@@]2(C[C@@H]3OC(=O)/C=C/[C@@](C)(O)[C@@H](O)[C@H](C)[C@@H](O)[C@H](OC4CCC(N(C)C)C(C)O4)[C@@H](O)[C@](C)(O)CCCCC/C=C/[C@@H]4CC(C)(C)O[C@@]4(O)C[C@H](O2)[C@H]3C)O1 (some centres undefined) ?
26.2 µM

Same read-out for "O=c1[nH]c(=O)n([C@@H]2O[C@H](CO)[C@@H](O)[C@@H]2F)cc1I" ?
> 100 µM

Same read-out for "O=c1c2cccnc2ncn1CCCN1CCCC1" ?
> 100 µM

Same read-out for "O=C1NC(=Nc2ccccc2)C(=Nc2ccccc2)N1c1ccccc1" ?
32.5 µM

Same read-out for "CC(C)=C[C@@H]1O[C@H](O)[C@@H]([C@H]2CC[C@@]3(C)[C@@H]4CC[C@H]5C(C)(C)C(=O)CC[C@@]56C[C@@]46CC[C@]23C)[C@@H]1O" ?
62.2 µM

Same read-out for "O=C(NCc1ccc2ccc3cccnc3c2n1)c1ccc[n+](Cc2ccccc2)c1" ?
> 100 µM

Same read-out for "CCN(CC)c1ccc(N=Nc2ccc(-c3nc4cccn(C)c-4n3)cc2)cc1" ?
24.7 µM

Same read-out for COc1ccc(CCN2C(=O)CC34C=CC(CC3C2=O)O4)cc1OC (centres undefined) ?
> 100 µM

Same read-out for OC12CCC3(O)c4ccccc4C3C1c1ccccc12 (centres undefined) ?
> 100 µM

Same read-out for "O=C(Nc1ccc2c(c1)OCCO2)C(=O)c1c[nH]c2ccccc12" ?
21.2 µM

Same read-out for "CC(=O)O[C@H]1C(=O)[C@@]2(C)[C@H]([C@H](OC(=O)c3ccccc3)[C@]3(O)C[C@H](OC(=O)[C@H](O)[C@@H](NC(=O)c4ccc(N(C)C)cc4)c4ccccc4)C(C)=C1C3(C)C)[C@]1(OC(C)=O)CO[C@@H]1C[C@@H]2O" ?
> 50 µM

Same read-out for "O=C(O)Cn1ccc2ccccc21" ?
> 100 µM

Same read-out for "Cc1ccccc1N=Nc1c(-c2ccccc2)nn(C(=O)CC(=O)Nc2cccc(Cl)c2)c1-c1ccccc1" ?
> 31.6 µM

Same read-out for "C/C(O)=C(\C=NC(=S)c1ccncc1)C(=O)Nc1ccccc1C" ?
> 100 µM

Same read-out for "C=CC[C@]1(C2=NC(C)(C)CO2)c2ccccc2-c2ccccc2[C@H]1C(C)=O" ?
32.7 µM

Same read-out for "CCn1c(=N)sc2nc3ccccc3n2c1=O" ?
> 100 µM

Same read-out for COc1ccc(-c2nsc3c2NC(=O)CC3c2cccc(Cl)c2)cc1 (centres undefined) ?
98.1 µM

Same read-out for "COc1cc(OC)c(C2(c3c(OC(C)C)c(=O)c3=O)SCCCS2)cc1OC" ?
> 100 µM

Same read-out for "[N-]=[N+]=Nc1ccc2c(c1)Sc1ccccc1N2CCCCN1CCN(C(=O)CCNC(=O)Cc2ccc(C(=O)c3ccccc3)cc2)CC1" ?
> 100 µM

Same read-out for "O=C(N/C(=C/c1cccc([N+](=O)[O-])c1)c1nc2ccc(Cl)cc2[nH]1)c1ccccc1" ?
62.5 µM

Same read-out for Cc1ccc(SCC(OCn2cnc3c(Cl)nc(N)nc32)[C@H](C)F)cc1 (some centres undefined) ?
> 100 µM

Same read-out for "O=[N+]([O-])C(C(Cl)=C(Cl)Cl)=C(n1cncn1)n1cncn1" ?
> 100 µM
